Reference for the values: the supplement of paper PMC11208160

Assay: recombinant barcode read abundance after kanamycin selection (control-corrected) (log10(CPM+1)); higher = more efficient recombination; sequences stand for … in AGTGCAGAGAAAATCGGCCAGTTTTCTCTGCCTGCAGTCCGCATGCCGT…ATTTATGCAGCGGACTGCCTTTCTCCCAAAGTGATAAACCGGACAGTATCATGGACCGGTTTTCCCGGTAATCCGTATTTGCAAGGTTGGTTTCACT; site = the 11-nt target
Measured recombinant barcode read abundance (log10) values are reported for all entries that follow.
I'd appreciate a reply containing only the number, no unit.

[
  {
    "input sequence": "GAGGCCTCTTGGGTTCTAACCTGTTGCCAGG [GAGGCCTCTTG_LTGcore_CT_RTGcore_CC] (site GAGGCCTCTTG) (LTG core: CT, RTG core: CC)",
    "measured value": 0.236
  },
  {
    "input sequence": "CATATTACTTGGGTTCTAACCTGTTGCCTCG [CATATTACTAG_LTGcore_CT_RTGcore_CG] (site CATATTACTAG) (LTG core: CT, RTG core: CG)",
    "measured value": 0.0475
  },
  {
    "input sequence": "AGGAGGTTATGGGTTCTAACCTGTTGCCTTA [AGGAGGTCTAG_LTGcore_TA_RTGcore_TA] (site AGGAGGTCTAG) (LTG core: TA, RTG core: TA)",
    "measured value": 0.209
  }
]

Lookup: Data request, read-out recombinant barcode read abundance (log10), for ATGTCCCCTTGGGTTCTAACCTGTTGCTCCT [ATGTCCCCTGA_LTGcore_CT_RTGcore_AG] (site ATGTCCCCTGA) (LTG core: CT, RTG core: AG)
Found: 0.205

Lookup: Can you look up the measured recombinant barcode read abundance (log10) of CGCGCCCCATGGGTTCTAACCTGTTGCGGAG [CGCGCCCCTCC_LTGcore_CA_RTGcore_CT] (site CGCGCCCCTCC) (LTG core: CA, RTG core: CT) for me?
Found: 0.303

Lookup: Tell me the measured recombinant barcode read abundance (log10) of GGGAGCCGTTGGGTTCTAACCTGTTGCTGAG [GGGAGCCCTCA_LTGcore_GT_RTGcore_CT] (site GGGAGCCCTCA) (LTG core: GT, RTG core: CT) , please.
Found: 0.186

Lookup: Fill in: recombinant barcode read abundance (log10) of GCGCGACCTTGGGTTCTAACCTGTTGCTTTC [GCGCGACCTAA_LTGcore_CT_RTGcore_GA] (site GCGCGACCTAA) (LTG core: CT, RTG core: GA) is ___
Found: 0.07

Lookup: Item ATGCTTTAGTGGGTTCTAACCTGTTGCCTAG [ATGCTTTCTAG_LTGcore_AG_RTGcore_CT] (site ATGCTTTCTAG) (LTG core: AG, RTG core: CT) has what recorded recombinant barcode read abundance (log10)?
Found: 0.0782

Lookup: Would you mind telling me what recombinant barcode read abundance (log10) value was observed for TCTACCCGATGGGTTCTAACCTGTTGCTGAG [TCTACCCCTCA_LTGcore_GA_RTGcore_CT] (site TCTACCCCTCA) (LTG core: GA, RTG core: CT) ?
Found: 0.208

Lookup: Can you look up the measured recombinant barcode read abundance (log10) of AGGAGGTCTTGGGTTCTAACCTGTTGCCTCC [AGGAGGTCTAG_LTGcore_CT_RTGcore_GG] (site AGGAGGTCTAG) (LTG core: CT, RTG core: GG) for me?
Found: 0.0685

Lookup: Consider the sequence CGAGCCCCTTGGGTTCTAACCTGTTGCTGTT [CGAGCCCCTCA_LTGcore_CT_RTGcore_AA] (site CGAGCCCCTCA) (LTG core: CT, RTG core: AA) and give its measured recombinant barcode read abundance (log10).
Found: 0.266
